Attribution: ChEMBL document CHEMBL1158870

test system: OVCAR-8; test: Cytotoxicity against human OVCAR8 cells by SRB assay; type: functional
Response field label takes Yes when GI50 is strictly below 7 µM and No in all other cases.

{"columns": ["Smiles representation", "Category"],
 "data": [
  ["CC(=O)OC[C@H]1O[C@@H](O[C@@H]2C[C@H]3C(C)(C)[C@H](OC(C)=O)CC[C@]3(C)[C@H]3CCC4=C([C@@H](C)C[C@@H](O)[C@H](O)C(C)(C)O)CC[C@@]4(C)[C@@]32C)[C@H](O)[C@@H](O)[C@@H]1O", "No"],
  ["COC(C)(C)[C@@H](O)[C@H](O)C[C@H](C)C1=C2CC[C@@H]3[C@@]4(C)CC[C@@H](OC(C)=O)C(C)(C)[C@@H]4C[C@@H](O[C@@H]4O[C@H](COC(C)=O)[C@@H](O)[C@H](O)[C@H]4O)[C@@]3(C)[C@]2(C)CC1", "No"],
  ["CC(=O)OC[C@H]1O[C@@H](O[C@@H]2C[C@H]3C(C)(C)[C@H](OC(C)=O)CC[C@]3(C)[C@H]3CC[C@@]45C[C@H](O)C[C@H](C)[C@@H]4CC=C5[C@@]32C)[C@H](O)[C@@H](O)[C@@H]1O", "Yes"],
  ["CC(=O)OC[C@H]1O[C@@H](O[C@@H]2C[C@H]3C(C)(C)[C@H](OC(C)=O)CC[C@]3(C)[C@H]3CC[C@@H]4[C@]5(CC[C@@]4(C)[C@@]32C)O[C@@H]([C@H](O)C(C)(C)O)C[C@@H]5C)[C@H](O)[C@@H](O)[C@@H]1O", "No"],
  ["COC(C)(C)[C@@H](O)[C@H]1C[C@H](C)[C@@]2(CC[C@]3(C)[C@@H]2CC[C@@H]2[C@@]4(C)CC[C@@H](OC(C)=O)C(C)(C)[C@@H]4C[C@@H](O[C@@H]4O[C@H](COC(C)=O)[C@@H](O)[C@H](O)[C@H]4O)[C@]23C)O1", "Yes"],
  ["C=C1[C@@H](O)C[C@@]23CC[C@@H]4[C@@]5(C)CC[C@@H](OC(C)=O)C(C)(C)[C@@H]5C[C@@H](O[C@@H]5O[C@H](COC(C)=O)[C@@H](O)[C@H](O)[C@H]5O)[C@@]4(C)C2=CC[C@H]3[C@H]1C", "Yes"],
  ["C=C(C)[C@@H](O)[C@H](O)C[C@H](C)[C@@H]1CC[C@]2(C)C1=CC[C@@H]1[C@@]3(C)CC[C@@H](OC(C)=O)C(C)(C)[C@@H]3C[C@@H](O[C@@H]3O[C@H](COC(C)=O)[C@@H](O)[C@H](O)[C@H]3O)[C@]12C", "Yes"]
]}
